B1: ZNF232 (parent)
chain: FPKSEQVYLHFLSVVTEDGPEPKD

# Variants of: B1
# measurement_protocol: protein stability index of a GFP-peptide fusion (GPS, HEK-293T) (PSI 1-6); higher = more stable;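 note: lentivirally expressed fusions sorted by FACS into six bins by GFP to DsRed ratio, PSI derived from sequencing read proportions per bin multiplied by bin number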
# experimental_parameters: c terminus: a fixed tail appended
The label depends only on protein stability index: Criterion met if it is at least 2, Criterion not met if it is smaller.

>  <var>
K23D

>  <label_class>
Criterion not met

$$$$

Does protein stability index meet or surpass 2 for S13G ?
Criterion not met

Does protein stability index meet or surpass 2 for P20H ?
Criterion met

Does protein stability index meet or surpass 2 for L12N ?
Criterion met

Does protein stability index meet or surpass 2 for G19Q ?
Criterion met

Does protein stability index meet or surpass 2 for P22L ?
Criterion met

Does protein stability index meet or surpass 2 for F1A ?
Criterion met

Origin of the recorded values: the supplement of paper PMC10567573
